Measured values drawn from ChEMBL document CHEMBL1139608 for this set.

pKi values by entry
biological target: Matrix metalloproteinase-9 (Homo sapiens, UniProt P14780)
Sequence (P14780 whole entry): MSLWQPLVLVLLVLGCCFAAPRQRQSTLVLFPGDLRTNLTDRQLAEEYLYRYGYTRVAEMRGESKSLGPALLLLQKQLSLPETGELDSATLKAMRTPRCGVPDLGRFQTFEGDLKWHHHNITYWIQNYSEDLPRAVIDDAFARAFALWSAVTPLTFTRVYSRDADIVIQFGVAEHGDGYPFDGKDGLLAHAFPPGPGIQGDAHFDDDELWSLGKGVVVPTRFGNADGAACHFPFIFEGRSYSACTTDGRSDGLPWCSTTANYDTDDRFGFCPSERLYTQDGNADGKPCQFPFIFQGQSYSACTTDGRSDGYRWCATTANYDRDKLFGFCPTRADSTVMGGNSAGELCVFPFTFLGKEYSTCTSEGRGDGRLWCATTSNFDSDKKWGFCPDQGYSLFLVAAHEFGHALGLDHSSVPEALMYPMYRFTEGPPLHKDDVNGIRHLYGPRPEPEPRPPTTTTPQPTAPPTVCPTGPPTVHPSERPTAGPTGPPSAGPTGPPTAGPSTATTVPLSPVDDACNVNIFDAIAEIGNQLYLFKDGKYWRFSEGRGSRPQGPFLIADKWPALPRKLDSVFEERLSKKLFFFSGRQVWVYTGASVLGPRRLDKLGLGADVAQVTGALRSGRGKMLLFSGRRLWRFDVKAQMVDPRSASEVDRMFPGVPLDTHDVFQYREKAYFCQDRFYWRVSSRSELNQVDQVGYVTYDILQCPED
pKi: −log10 of the molar value.

{"chemical_structure": "Cc1cc(COc2ccc(C3(N4CCN(C(=O)C(C)(C)C)CC4)C(=O)NC(=O)NC3=O)cc2)c2ccccc2n1", "pKi": "< 5.67"}
{"chemical_structure": "Cc1cc(COc2ccc(C3(N4CCN(CCc5ccccc5)CC4)C(=O)NC(=O)NC3=O)cc2)c2ccccc2n1", "pKi": 7.07}
{"chemical_structure": "Cc1cc(COc2ccc(C3(N4CCCCC4)C(=O)NC(=O)NC3=O)cc2)c2ccccc2n1", "pKi": "< 5.67"}
{"chemical_structure": "Cc1cc(COc2ccc(C3(N4CCOCC4)C(=O)NC(=O)NC3=O)cc2)c2ccccc2n1", "pKi": "< 5.67"}
{"chemical_structure": "Cc1cc(COc2ccc(C3(C)C(=O)NC(=O)NC3=O)cc2)c2ccccc2n1", "pKi": "< 5.67"}
{"chemical_structure": "Cc1cc(COc2ccc(C3(N4CCN(c5ccc([N+](=O)[O-])cc5)CC4)C(=O)NC(=O)NC3=O)cc2)c2ccccc2n1", "pKi": 6.86}
{"chemical_structure": "CCCCCCN1CCN(C2(c3ccc(OCc4cc(C)nc5ccccc45)cc3)C(=O)NC(=O)NC2=O)CC1", "pKi": "< 5.67"}
{"chemical_structure": "Cc1cc(COc2ccc(C3(N4CCN(S(C)(=O)=O)CC4)C(=O)NC(=O)NC3=O)cc2)c2ccccc2n1", "pKi": "< 5.67"}
{"chemical_structure": "CC1(c2ccc(Oc3ccccc3)cc2)C(=O)NC(=O)NC1=O", "pKi": 7.28}

* * *

assay: In vitro percent inhibition against aggrecanase at the concentration of 1 uM
Rule: inhibition under 8% gives no, otherwise yes.

{"chemical_structure": "Cc1cc(COc2ccc(C3(N4CCN(CC(C)(C)C)CC4)C(=O)NC(=O)NC3=O)cc2)c2ccccc2n1", "assigned_label": "yes"}
{"chemical_structure": "Cc1cc(COc2ccc(C3(N4CCN(CCc5ccccc5)CC4)C(=O)NC(=O)NC3=O)cc2)c2ccccc2n1", "assigned_label": "yes"}
{"chemical_structure": "Cc1cc(COc2ccc(C3(N4CCN(C(=O)OC(C)(C)C)CC4)C(=O)NC(=O)NC3=O)cc2)c2ccccc2n1", "assigned_label": "yes"}
{"chemical_structure": "Cc1cc(COc2ccc(C3(N4CCCCC4)C(=O)NC(=O)NC3=O)cc2)c2ccccc2n1", "assigned_label": "no"}
{"chemical_structure": "Cc1cc(COc2ccc(C3(N4CCN(Cc5ccccc5)CC4)C(=O)NC(=O)NC3=O)cc2)c2ccccc2n1", "assigned_label": "no"}
{"chemical_structure": "Cc1cc(COc2ccc(C3(N4CCN(S(C)(=O)=O)CC4)C(=O)NC(=O)NC3=O)cc2)c2ccccc2n1", "assigned_label": "no"}
{"chemical_structure": "CC1(c2ccc(O)cc2)C(=O)NC(=O)NC1=O", "assigned_label": "no"}
{"chemical_structure": "Cc1cc(COc2ccc3cc(C4(C)C(=O)NC(=O)NC4=O)ccc3c2)c2ccccc2n1", "assigned_label": "no"}

* * *

assay: In vitro percent inhibition against aggrecanase at the concentration of 1 uM

{"chemical_structure": "Cc1cc(COc2ccc(C3(C)C(=O)NC(=O)NC3=O)cc2)c2ccccc2n1", "inhibition, %": 0}
{"chemical_structure": "Cc1cc(COc2ccc(C3(N4CCN(CCCc5ccccc5)CC4)C(=O)NC(=O)NC3=O)cc2)c2ccccc2n1", "inhibition, %": 12}
{"chemical_structure": "Cc1cc(COc2ccc(C3(N4CCNCC4)C(=O)NC(=O)NC3=O)cc2)c2ccccc2n1", "inhibition, %": 0}
{"chemical_structure": "Cc1cc(COc2ccc(C3(N4CCN(c5ccc([N+](=O)[O-])cc5)CC4)C(=O)NC(=O)NC3=O)cc2)c2ccccc2n1", "inhibition, %": 0}
{"chemical_structure": "CCCCCCN1CCN(C2(c3ccc(OCc4cc(C)nc5ccccc45)cc3)C(=O)NC(=O)NC2=O)CC1", "inhibition, %": 12}
